Target: GCase (Homo sapiens, UniProt P04062)
Construct: endogenous in cells; host or cells: HeLa cells
Experiment: activation of GCase in a live cell PFB assay in HELA cells
Type: cell-based
Conditions: activation of GCase, EC50 ranges
Method: Exemplary compounds were evaluated for activation of GCase in a live cell PFB assay in HELA cells (essentially as described in Ysselstein et al., “LRRK2 kinase activity regulates lysosomal glucocerebrosidase in neurons derived from Parkinson's disease patients” Nature Communications (2019) 10:5570). […] EC50 ranges: A: <10 μM; B: >10-50 μM; C: >50-100 μM; D: >100 μM.
pEC50: −log10 of the molar value.
Quick reference for pEC50 among some compounds

Some compounds with recorded pEC50:
CCc1cnc(CN2CC3(CCN(c4cnc5cnn(CC(F)F)c5n4)CC3)CC2=O)s1 [Cmpd 976] = > 5.00
Cc1nc(N2CCC3(CCN(c4ncc5c(C)nn(CC(F)F)c5n4)C3)C2)cc(C(F)(F)F)n1 (stereo not shown) [Cmpd 541] = > 5.00
Cc1nn(CC(F)F)c2nc(N3CCC4(CCN(c5cc(C(F)F)ccn5)CC4)C3)cnc12 [Compound 163] = > 5.00
CN(C)C(=O)c1cccc(N2CCC3(CCN(c4cnc5cnn(CC(F)F)c5n4)CC3)C2=O)n1 [Cmpd 671] = > 5.00
Cc1nc(N2CC3(CCN(c4nc5c(cnn5CC(F)F)c(=O)n4C)C3)C2)cc(C(F)(F)F)n1 [Cmpd 1084] = > 5.00
FC(F)(F)Cn1ncc2ncc(N3CCC4(CCN(c5cc(C(F)(F)F)ccn5)C4)CC3)nc21 [Compound 177] = 4.00 to 4.30

Now look at this one.
For O=C1CC2(CCN(c3ncccc3C(F)(F)F)CC2)CN1c1cnc2cnn(CC(F)F)c2n1 [Compound 113] on GCase (Homo sapiens, UniProt P04062), measured pEC50 was < 4.00

###

Biological target: GCase (Homo sapiens, UniProt P04062)
Construct: endogenous in cells; host or cells: HeLa cells
Sequence (P04062 40-536): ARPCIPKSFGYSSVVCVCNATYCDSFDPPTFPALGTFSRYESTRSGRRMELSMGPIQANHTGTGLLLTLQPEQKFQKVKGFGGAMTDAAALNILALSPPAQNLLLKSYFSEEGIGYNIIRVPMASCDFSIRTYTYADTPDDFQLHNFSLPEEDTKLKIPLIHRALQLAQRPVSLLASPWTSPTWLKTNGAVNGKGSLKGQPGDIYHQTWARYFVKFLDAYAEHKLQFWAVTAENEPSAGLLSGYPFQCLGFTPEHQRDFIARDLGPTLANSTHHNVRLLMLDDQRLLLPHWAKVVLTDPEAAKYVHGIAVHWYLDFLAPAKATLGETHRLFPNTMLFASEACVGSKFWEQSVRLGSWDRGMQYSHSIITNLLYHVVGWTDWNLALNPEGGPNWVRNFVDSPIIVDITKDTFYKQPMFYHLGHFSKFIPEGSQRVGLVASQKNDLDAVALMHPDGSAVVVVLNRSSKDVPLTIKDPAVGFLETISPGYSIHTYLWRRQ
Assay: activation of GCase in a live cell PFB assay in HELA cells
Assay type: cell-based
Conditions: activation of GCase, EC50 ranges
Measurement label: EC50

Some compounds with recorded EC50:
Cc1nn(CC(F)F)c2nc(N3CCC4(CCN(c5ccnc(C(F)(F)F)c5)C4)C3)ncc12 (stereo not shown) = 50 to 100 µM
FC(F)Cn1ncc2ncc(N3CCC4(CCN(c5cncc(C(F)(F)F)c5)C4)CC3)nc21 = < 10 µM
Cc1nccn1-c1cncc(N2CCC3(CCN(c4ccc(C(F)(F)F)nc4)C3)CC2)n1 = 10 to 50 µM

Reported EC50 ( O=C1N(c2cnc3cnn(CC(F)F)c3n2)CCC12CCN(c1ccc(C(F)(F)F)nc1)C2 (stereo not shown) ) = 10 to 50 µM

Reported EC50 ( `O=C1CC2(CCN(c3cnc4cnn(CC(F)F)c4n3)CC2)CN1Cc1ccc(F)c(Cl)c1` ) = < 10 µM

Reported EC50 ( `FC(F)Cn1ncc2ncc(N3CCC4(CC3)CC(COc3ncccc3C(F)(F)F)C4)nc21` ) = < 10 µM

Reported EC50 ( `FC(F)Cn1ncc2ncc(N3CCC4(CC3)CC(COc3ccc(C(F)(F)F)nc3)C4)nc21` ) = 10 to 50 µM

Reported EC50 ( CC(c1ccnc(C(F)(F)F)c1)N1CC2(CCN(c3cnc4cnn(CC(F)F)c4n3)CC2)CC1=O (stereo not shown) ) = < 10 µM

Reported EC50 ( `O=S(=O)(c1cccc(C(F)(F)F)c1)N1CC2(CCN(c3cnc4cnn(CC(F)F)c4n3)C2)C1` ) = 10 to 50 µM

Reported EC50 ( `Cc1nc(N2CC3(CCN(c4cncc(-c5cnn(CC(F)F)c5)n4)C3)C2)cc(C(F)(F)F)n1` ) = 50 to 100 µM

###

Biological target: GCase (Homo sapiens, UniProt P04062)
Construct: endogenous in cells; host or cells: HeLa cells
Sequence (P04062 40-536): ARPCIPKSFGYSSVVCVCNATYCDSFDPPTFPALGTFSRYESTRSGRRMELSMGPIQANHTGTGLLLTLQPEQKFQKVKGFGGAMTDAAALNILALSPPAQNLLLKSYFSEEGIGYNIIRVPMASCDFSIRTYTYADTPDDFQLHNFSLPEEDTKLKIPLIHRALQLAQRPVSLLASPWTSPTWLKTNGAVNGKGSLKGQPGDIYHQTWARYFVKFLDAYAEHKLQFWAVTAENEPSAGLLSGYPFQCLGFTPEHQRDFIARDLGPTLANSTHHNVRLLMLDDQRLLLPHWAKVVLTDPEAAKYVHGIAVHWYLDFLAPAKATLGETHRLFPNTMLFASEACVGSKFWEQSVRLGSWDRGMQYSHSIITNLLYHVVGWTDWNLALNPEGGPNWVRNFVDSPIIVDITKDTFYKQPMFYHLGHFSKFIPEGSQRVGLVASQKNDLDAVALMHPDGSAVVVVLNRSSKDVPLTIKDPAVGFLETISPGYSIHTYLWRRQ
Assay: activation of GCase in a live cell PFB assay in HELA cells
Assay type: cell-based
Conditions: activation of GCase, EC50 ranges
Measurement label: EC50

Some compounds with recorded EC50:
Cn1c(N2CCC3(CC2)CC(=O)N(Cc2cnc(C(F)(F)F)nc2)C3)nc2c(cnn2CC(F)F)c1=O = 10 to 50 µM
O=C1N(c2cc(C(F)(F)F)ccn2)CCC12CCCN(c1cnc3cnn(CC(F)F)c3n1)C2 (centres unmarked) = 50 to 100 µM
O=C1N(c2cnc3cnn(CC(F)F)c3n2)CCC12CCN(c1ccc(C(F)(F)F)cn1)C2 (centres unmarked) = 10 to 50 µM
O=C1CC2(CCN(c3cnc4cnn(CC(F)F)c4n3)CC2)CN1Cc1ccc(OC(F)(F)F)cc1 = < 10 µM

Now look at this one.
Reported EC50 ( `Cc1nc(N2CC3(CCN(c4ncc5cnn(CC(F)F)c5n4)C3)C2)cc(C(F)(F)F)n1` ) = > 100 µM

###

Target: GCase (Homo sapiens, UniProt P04062)
Construct: endogenous in cells; host or cells: HeLa cells
Assay: activation of GCase in a live cell PFB assay in HELA cells
Assay type: cell-based
Settings: activation of GCase, EC50 ranges
Protocol: Exemplary compounds were evaluated for activation of GCase in a live cell PFB assay in HELA cells (essentially as described in Ysselstein et al., “LRRK2 kinase activity regulates lysosomal glucocerebrosidase in neurons derived from Parkinson's disease patients” Nature Communications (2019) 10:5570). […] EC50 ranges: A: <10 μM; B: >10-50 μM; C: >50-100 μM; D: >100 μM.
Measurement label: EC50

Some molecules with recorded EC50:
O=C1CC2(CCN(c3cnc4cnn(CC(F)F)c4n3)CC2)CN1c1ccnc(C(F)(F)F)n1 = < 10 µM
Cc1nn(CC(F)F)c2nc(N3CCC4(CC3)CC(=O)N(c3ccnc(C(F)(F)F)n3)C4)cnc12 = < 10 µM
O=C1N(c2ccc(C(F)(F)F)nc2)c2ccccc2C12CCN(c1cnc3cnn(CC(F)F)c3n1)CC2 = 10 to 50 µM

Now look at this one.
For `Cc1nc(N2CCC3(C2)CN(c2ncc4c(C)nn(C5COC5)c4n2)C3)cc(C(F)(F)F)n1` on GCase (Homo sapiens, UniProt P04062), measured EC50 was < 10 µM
